experiment: Effect of ticagrelor on diltiazem pharmacokinetic parameters; assay type: in vivo, human; conditions: human, plasma, diltiazem alone; read-out: Median tmax (range)
reported_metric: Tmax (h)
Give the value in h but do not write h after it.

Look up Tmax for this compound: `COc1ccc([C@@H]2Sc3ccccc3N(CCN(C)C)C(=O)[C@@H]2OC(C)=O)cc1`
8

###

assay: Effect of ticagrelor on diltiazem pharmacokinetic parameters; assay type: in vivo, human; details: human, plasma, diltiazem + ticagrelor; read-out: Median tmax (range)
reported_metric: Tmax (h)
Quick note: give the figure in h, leave out the unit.

// Tmax lookup, key: `COc1ccc([C@@H]2Sc3ccccc3N(CCN(C)C)C(=O)[C@@H]2OC(C)=O)cc1`
10

src = paper PMC4937655
